Recorded values, source PubChem BioAssay (NCI).

# System: SF-295 CNS
# protocol.text: NCI-60 one-dose screen, 48 h
# experimental.conditions: 10 µM unless noted
This is part of a sample that, as a whole, favours compounds with a hit. Of some 83,000 tested, about 20% had one in any assay. Activity calls are given as the source filed them. Rule for the calls: active = growth percent below 10; inactive = the rest.
// classify into active, inactive

See these solved cases before continuing.
molecule	study.target	assigned.category
Cn1c(O)c(C=NCCN=Cc2c(O)n(C)c(=O)n(C)c2=O)c(=O)n(C)c1=O	SF-295 CNS	inactive
CN(CCn1sc(=O)n(Cc2ccccc2)c1=O)Cc1ccc2c(Cl)cc(Cl)c(O)c2n1	SF-295 CNS	inactive
Cn1c(-c2ccc(Br)cc2)c(O)c(=O)c2c(F)cccc21	SF-295 CNS	inactive
CC(C)CCC[C@@H](C)[C@H]1CC[C@H]2[C@@H]3CC=C4C[C@@H](C(C(=O)O)C(=O)O)CC[C@]4(C)[C@H]3CC[C@]12C	SF-295 CNS	active
COc1ccc2nc(NC(=O)CSc3nnc4n3S(=O)(=O)c3ccccc3N4C)sc2c1	SF-295 CNS	inactive

Prompt: Please state the recorded outcome for this molecule: O=C1/C(=C/c2ccc(Cl)c(Cl)c2)CN(C(=O)C(Cl)Cl)C/C1=C\c1ccc(Cl)c(Cl)c1
Response: active

Prompt: Please state the recorded outcome for this molecule: COc1cccc(/C=C/C(=O)c2cc3c(N)c(C(=O)Nc4ccccc4)sc3nc2C)c1
Response: inactive

Prompt: // param item: Cc1ccc(Cc2cnc(NC(=O)c3cc(Br)cs3)s2)cc1 ; yields the recorded call
Response: inactive

Prompt: Recorded test outcome, item CN([O-])c1nc(N(C)[O-])nc(N2CCOCC2)n1.CN([O-])c1nc(N(C)[OH2+])nc(N2CCOCC2)n1.[Fe+3]
Response: inactive

Prompt: Assay outcome for Cc1nnc(-n2c(O)cc(=O)n(-c3ccccc3)c2=S)nc1/C=C/c1ccc(N(C)C)cc1 : what was it?
Response: inactive
